system: human pancreatic cancer cell line HPAF-II; assay: CTG proliferation inhibition, HPAF-II; type: cell-based; conditions: 72 h incubation, read-out: IC50 (nM) of the test compounds for various tumor cell lines
MEASUREMENT TYPE: IC50 (nM)
Provide the reading as a plain figure in nM.

What IC50 appears in the records for this compound with human pancreatic cancer cell line HPAF-II? CC(=O)OC12COC1CC(O)C1(C)C(=O)C(OC(=O)Nc3ccc(C(C)=O)cc3)C3=C(C)C(OC(=O)C(O)C(NC(=O)OC(C)(C)C)c4ccccc4)CC(O)(C(OC(=O)c4ccccc4)C21)C3(C)C (stereo not shown) [II, reference compound]
12.6

What IC50 appears in the records for this compound with human pancreatic cancer cell line HPAF-II? CC(=O)OC12COC1CC(O)C1(C)C(=O)C(OC(=O)Nc3ccc(C(C)O)cc3)C3=C(C)C(OC(=O)C(O)C(NC(=O)OC(C)(C)C)c4ccccc4)CC(O)(C(OC(=O)c4ccccc4)C21)C3(C)C (stereo not shown) [Compound I-2]
8.65

What IC50 appears in the records for this compound with human pancreatic cancer cell line HPAF-II? CC(=O)OC12COC1CC(O)C1(C)C(=O)C(OC(=O)Nc3ccc(C(C)O)cc3)C3=C(C)C(OC(=O)C(O)C(NC(=O)OC(C)(C)C)c4ccccc4)CC(O)(C(OC(=O)c4ccccc4)C21)C3(C)C (stereo not shown) [Compound I-7]
3.11

What IC50 appears in the records for this compound with human pancreatic cancer cell line HPAF-II? CC(=O)OC12COC1CC(O)C1(C)C(=O)C(OC(=O)Nc3ccc(C(C)O)cc3)C3=C(C)C(OC(=O)C(O)C(NC(=O)OC(C)(C)C)c4ccccc4)CC(O)(C(OC(=O)c4ccccc4)C21)C3(C)C (stereo not shown) [Compound I-8]
9.05
